EXPERIMENTAL SYSTEM: HLA-A*32:01
TEST: IEDB peptide-MHC binding, purified MHC/competitive/radioactivity; filed as Kd, often an IC50 or EC50 that approximates it; bounds were set here for any values at or beyond the usual limits of such assays
CONDITION INFO: source organism: Mammarenavirus brazilense
MEASUREMENT NAME: pKd
In simple prose, pKd is minus the logarithm base ten of a concentration in moles per litre.

Inquiry: Could you tell me which pKd is on file for GSLLHGLWPY ?
Reply text: 5.95

* * *

EXPERIMENTAL SYSTEM: HLA-A*02:01
TEST: IEDB peptide-MHC binding, purified MHC/direct/fluorescence; filed as Kd, often an IC50 or EC50 that approximates it; bounds were set here for any values at or beyond the usual limits of such assays
CONDITION INFO: source organism: Camelpox virus M-96
MEASUREMENT NAME: Kd (nM)
Form entry: value (nM) — number only.

Inquiry: Could you tell me which Kd is on file for LLSKNTFYL ?
Reply text: 15.5

* * *

EXPERIMENTAL SYSTEM: HLA-A*24:03
TEST: IEDB peptide-MHC binding, purified MHC/competitive/fluorescence; filed as Kd, often an IC50 or EC50 that approximates it; bounds were set here for any values at or beyond the usual limits of such assays
CONDITION INFO: source organism: Yersinia pestis Nepal516
MEASUREMENT NAME: Kd

Inquiry: Could you tell me which Kd is on file for YADGGQWYN ?
Reply text: ≥ 20 µM

* * *

EXPERIMENTAL SYSTEM: HLA-B*07:02
TEST: IEDB peptide-MHC binding, purified MHC/competitive/fluorescence; bounds were set here for any values at or beyond the usual limits of such assays
CONDITION INFO: source organism: Zaire ebolavirus
MEASUREMENT NAME: IC50 (µM)
Form entry: value (µM) — number only.

Inquiry: Could you tell me which IC50 is on file for VPSATKRWG ?
Reply text: 64.6

* * *

EXPERIMENTAL SYSTEM: HLA-A*02:03
TEST: IEDB peptide-MHC binding, purified MHC/competitive/fluorescence; filed as Kd, often an IC50 or EC50 that approximates it; bounds were set here for any values at or beyond the usual limits of such assays
CONDITION INFO: source organism: Vibrio parahaemolyticus RIMD 2210633
MEASUREMENT NAME: Kd

Inquiry: Could you tell me which Kd is on file for GTVPTDNPF ?
Reply text: ≥ 20 µM

* * *

EXPERIMENTAL SYSTEM: HLA-A*02:19
TEST: IEDB peptide-MHC binding, purified MHC/competitive/fluorescence; filed as Kd, often an IC50 or EC50 that approximates it; bounds were set here for any values at or beyond the usual limits of such assays
CONDITION INFO: source organism: Yersinia pestis Nepal516
pKd: −log10 of the molar value.
MEASUREMENT NAME: pKd

Inquiry: Could you tell me which pKd is on file for YADGGQWYN ?
Reply text: ≤ 4.70

* * *

EXPERIMENTAL SYSTEM: HLA-A*02:01
TEST: IEDB peptide-MHC binding, purified MHC/competitive/fluorescence; bounds were set here for any values at or beyond the usual limits of such assays
CONDITION INFO: source organism: Vaccinia virus Copenhagen
MEASUREMENT NAME: IC50

Inquiry: Could you tell me which IC50 is on file for SISIKLTDS ?
Reply text: ≥ 107 µM
